Measured values drawn from patent US12336991B2 for this set.

tested system: FXa (Homo sapiens)
procedure details: Determination of selectivity: FXa inhibition, chromogenic substrate S2765 assay
Format: biochemical
particulars: fold selectivity for FXIIa over FXa
readout name: FXa (human)/FXIIa alpha (human)

smiles_structure=NCc1ccc(CNC(=O)[C@@H]2C[C@@H](Cc3cccc(Cl)c3)CN2C(=O)[C@H](N)CCc2ccccc2)cc1 result=∘∘∘
smiles_structure=CC(=O)N(Cc1ccccc1)[C@H]1C[C@@H](C(=O)NCc2ccc3c(c2)nnn3C)N(C(=O)[C@H](N)CCc2ccccc2)C1 result=∘∘
smiles_structure=Cn1nnc2cc(CNC(=O)[C@@H]3C[C@@H](Cc4ccncc4)CN3C(=O)[C@@H](CCC(=O)N3CCCC3)NCC(F)(F)F)ccc21 result=∘∘
smiles_structure=COc1ccc(C[C@@H]2C[C@@H](C(=O)NCc3ccc4c(c3)nnn4C)N(C(=O)[C@H](N)CCC(=O)N3CCC[C@H]3C(C)C)C2)cc1 result=∘∘∘

###

tested system: FXa (Homo sapiens)
procedure details: Determination of selectivity: FXa inhibition, chromogenic substrate S2765 assay
Type: biochemical
particulars: fold selectivity for FXIIa over FXa
readout name: FXa (human)/FXIIa alpha (human)

compound=CNC(=O)N[C@H]1C[C@@H](C(=O)NCc2ccc3c(c2)nnn3C)N(C(=O)[C@H](N)CCc2ccccc2)C1 tested_system="FXa (Homo sapiens)" readout_name="FXa (human)/FXIIa alpha (human)" result=∘∘
compound=COc1ccc(C[C@@H]2C[C@@H](C(=O)NCc3cc4ccncc4o3)N(C(=O)[C@H](N)CCC(=O)N3CCCC3)C2)cc1 tested_system="FXa (Homo sapiens)" readout_name="FXa (human)/FXIIa alpha (human)" result=∘∘∘
compound=COc1ccc(C[C@@H]2C[C@@H](C(=O)NCc3ccc4c(c3)nnn4C)N(C(=O)[C@H](N)CCC(=O)N3CCC[C@H]3C#N)C2)cc1 tested_system="FXa (Homo sapiens)" readout_name="FXa (human)/FXIIa alpha (human)" result=∘∘∘
compound=Cn1ncc2cc(CNC(=O)[C@@H]3C[C@@H](c4ccccc4)CN3C(=O)[C@H](N)CCc3ccccc3)ccc21 tested_system="FXa (Homo sapiens)" readout_name="FXa (human)/FXIIa alpha (human)" result=∘∘

Give the measured FXa (human)/FXIIa alpha (human) of CN(C1CCCCC1)C1C[C@@H](C(=O)NCc2ccc3c(c2)nnn3C)N(C(=O)[C@H](N)CCc2ccccc2)C1 (stereo partly drawn) .
∘∘

Again, but for COc1ccc(C[C@@H]2C[C@@H](C(=O)NCc3cc4cnccc4[nH]3)N(C(=O)[C@H](N)CCC(=O)N3CCCC3)C2)cc1
∘∘∘

###

tested system: FXIIa (Homo sapiens, UniProt P00748)
Sequence (P00748 373-615 limits assumed): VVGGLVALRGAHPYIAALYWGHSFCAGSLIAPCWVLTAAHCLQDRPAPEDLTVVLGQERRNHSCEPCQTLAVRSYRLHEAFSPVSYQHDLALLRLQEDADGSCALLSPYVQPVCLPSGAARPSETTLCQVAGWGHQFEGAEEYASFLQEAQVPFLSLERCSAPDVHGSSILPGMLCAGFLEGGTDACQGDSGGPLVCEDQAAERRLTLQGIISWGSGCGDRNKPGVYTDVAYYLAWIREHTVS
Sequence (P00748 20-372 partner limits assumed): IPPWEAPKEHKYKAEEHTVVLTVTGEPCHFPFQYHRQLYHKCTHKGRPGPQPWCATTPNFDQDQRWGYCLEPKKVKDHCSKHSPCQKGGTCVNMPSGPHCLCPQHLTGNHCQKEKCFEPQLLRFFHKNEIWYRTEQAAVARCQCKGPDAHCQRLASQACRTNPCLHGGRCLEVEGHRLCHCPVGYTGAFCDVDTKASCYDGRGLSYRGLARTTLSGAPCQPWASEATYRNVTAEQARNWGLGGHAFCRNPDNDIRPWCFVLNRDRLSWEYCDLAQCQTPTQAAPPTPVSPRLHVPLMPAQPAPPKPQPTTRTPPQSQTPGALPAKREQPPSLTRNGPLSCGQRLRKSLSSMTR
readout name: Ki

Past entries and their recorded results:
compound="COc1ccc(C[C@@H]2C[C@@H](C(=O)NCc3ccc4c(c3)nnn4C)N(C(=O)[C@H](N)CCC(=O)N3CCCNCC3)C2)cc1 [Example M05461]" tested_system="FXIIa (Homo sapiens, UniProt P00748)" readout_name=Ki result="< 0.2 µM"
compound="O=C(NCc1cc2cnccc2[nH]1)[C@@H]1C[C@@H](Cc2ccc(C(F)(F)F)cc2)CN1C(=O)C1NCCc2cc(Cl)ccc21 (stereo partly drawn) [Example M00970]" tested_system="FXIIa (Homo sapiens, UniProt P00748)" readout_name=Ki result="0.2 to 2 µM"

As a next step, examine the compound that follows.
Give the measured Ki of Cn1nnc2cc(CNC(=O)[C@@H]3C[C@@H](Cc4ccncc4)CN3C(=O)[C@@H](CCC(=O)N3CCCC3)NS(C)(=O)=O)ccc21 [Example M05268] .
> 2 µM

###

tested system: FXa (Homo sapiens, UniProt P00742)
Sequence (P00742 235-488 limits assumed): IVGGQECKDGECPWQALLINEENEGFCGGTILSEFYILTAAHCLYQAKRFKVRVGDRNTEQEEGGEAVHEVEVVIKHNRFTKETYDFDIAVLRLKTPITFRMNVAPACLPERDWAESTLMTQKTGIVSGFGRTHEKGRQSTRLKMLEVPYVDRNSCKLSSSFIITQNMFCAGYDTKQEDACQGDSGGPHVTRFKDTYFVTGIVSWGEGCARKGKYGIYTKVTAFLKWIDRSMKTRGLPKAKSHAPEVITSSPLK
Sequence (P00742 41-179 partner limits assumed): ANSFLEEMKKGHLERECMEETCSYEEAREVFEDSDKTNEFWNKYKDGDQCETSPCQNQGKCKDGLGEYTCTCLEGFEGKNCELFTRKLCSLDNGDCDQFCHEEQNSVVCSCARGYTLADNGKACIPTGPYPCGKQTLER
procedure details: Determination of selectivity: FXa inhibition, chromogenic substrate S2765 assay
Format: biochemical
particulars: fold selectivity for FXIIa over FXa
readout name: FXa (human)/FXIIa alpha (human)

Past entries and their recorded results:
molecule="Cn1nnc2cc(CNC(=O)[C@@H]3CC(Cc4ccccc4Br)CN3C(=O)[C@H]3C[C@@H](c4ccccc4)CN3)ccc21 (some centres unmarked) [Example M05329]" readout_name="FXa (human)/FXIIa alpha (human)" result=∘∘
molecule="COc1ccc(C[C@@H]2C[C@@H](C(=O)NCc3ccc4c(c3)nnn4C)N(C(=O)[C@H]3C[C@@H](Oc4ccccc4)CN3)C2)cc1 [Example M05351]" readout_name="FXa (human)/FXIIa alpha (human)" result=∘∘
molecule="Cn1cc(-c2ccc(C[C@@H]3C[C@@H](C(=O)NCc4ccc5c(c4)nnn5C)N(C(=O)[C@H](N)CCC(=O)N4CCCC4)C3)cc2)cn1 [Example M05341]" readout_name="FXa (human)/FXIIa alpha (human)" result=∘∘∘
molecule="COc1ccc(C[C@@H]2C[C@@H](C(=O)NCc3ccc4c(c3)nnn4C)N(C(=O)[C@H](N)CCC(=O)N3C4CCC3CNC4)C2)cc1 [Example M05420]" readout_name="FXa (human)/FXIIa alpha (human)" result=∘∘∘
molecule="COc1ccc(C[C@@H]2C[C@@H](C(=O)NCc3ccc4c(c3)nnn4C)N(C(=O)[C@H]3CC(c4ccc(C(F)(F)F)cc4)CN3)C2)cc1 (some centres unmarked) [Example M05345]" readout_name="FXa (human)/FXIIa alpha (human)" result=∘∘

Give the measured FXa (human)/FXIIa alpha (human) of Cn1nnc2cc(CNC(=O)[C@@H]3CC(NCC4CCCCC4)CN3C(=O)[C@H](N)CCc3ccccc3)ccc21 (some centres unmarked) [Example M05204] .
∘∘

Again, but for CN(C)[C@H](CCC(=O)N1CCCC1)C(=O)N1C[C@H](Cc2ccncc2)C[C@H]1C(=O)NCc1ccc2c(c1)nnn2C [Example M05220]
∘∘∘

Again, but for COc1ccc(C[C@@H]2C[C@@H](C(=O)NCc3ccc4c(c3)nnn4C)N(C(=O)[C@H]3CC(c4cnccn4)CN3)C2)cc1 (some centres unmarked) [Example M05459]
∘∘∘
